# TARGET_OR_SYSTEM: human recombinant PDE4B1 enzyme (Homo sapiens (Human), UniProt Q07343)
# Sequence (Q07343 whole entry): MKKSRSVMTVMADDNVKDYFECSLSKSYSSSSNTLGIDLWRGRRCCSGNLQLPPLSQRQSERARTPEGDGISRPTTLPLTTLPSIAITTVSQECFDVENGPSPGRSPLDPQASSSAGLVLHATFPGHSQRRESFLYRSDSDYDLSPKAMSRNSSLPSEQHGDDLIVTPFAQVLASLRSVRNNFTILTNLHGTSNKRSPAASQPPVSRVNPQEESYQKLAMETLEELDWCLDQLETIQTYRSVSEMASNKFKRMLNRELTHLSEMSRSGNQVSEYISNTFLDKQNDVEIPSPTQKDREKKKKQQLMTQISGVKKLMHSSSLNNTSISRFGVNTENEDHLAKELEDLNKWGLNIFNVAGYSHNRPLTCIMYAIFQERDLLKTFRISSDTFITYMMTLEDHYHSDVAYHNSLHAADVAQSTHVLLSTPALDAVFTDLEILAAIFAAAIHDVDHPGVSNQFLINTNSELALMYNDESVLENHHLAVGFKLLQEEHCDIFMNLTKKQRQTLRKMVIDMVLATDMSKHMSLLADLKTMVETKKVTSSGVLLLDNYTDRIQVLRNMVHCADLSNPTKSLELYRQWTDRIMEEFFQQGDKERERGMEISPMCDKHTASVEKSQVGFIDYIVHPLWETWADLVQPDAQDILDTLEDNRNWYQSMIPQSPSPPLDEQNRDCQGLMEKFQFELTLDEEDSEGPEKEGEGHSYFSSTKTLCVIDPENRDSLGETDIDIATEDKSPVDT
# ASSAY_TEXT: Inhibition of PDE4B1 activity by cAMP HTRF assay
# CONDITION_NOTES: human recombinant PDE4B1, cAMP 40 nM, pH 7.4
Each entry below lists one item and its recorded IC50 value.

COc1ccc(/C=C/n2c(C)cc(=O)cc2C)cc1O[C@H]1CCSC1; 7.5 nM
COc1ccc(/C=C/n2c(C)cc(=O)cc2C)cc1OC1CCS(=O)(=O)C1 (stereo not drawn); 1.15 nM
COc1ccc(C(=O)Cn2ccc(=O)cc2C)cc1OCC1CC1; 25 nM
COc1ccc(C(=O)Cn2c(C)cc(=O)cc2C)cc1OCC[S+](C)[O-] (stereo not drawn); 1250 nM
COc1ccc(/C(Cn2c(C)cc(=O)cc2C)=N\OCSC)cc1OCC1CC1; 8.2 nM
COc1ccc(/C=C/n2c(C)cc(=O)cc2C)cc1OCC1CC1; 5.1 nM
COc1ccc(/C=C/n2c(C)cc(=O)cc2C)cc1OC1CCSC1 (stereo not drawn); 7 nM
CCCOc1cc(C(=O)Cn2c(C)cc(=O)cc2C)ccc1OC; 4.9 nM

# evaluate next
Inquiry: Look at this compound and give its reported IC50. COc1cc(/C=C/n2c(C)cc(=O)cc2C)ccc1OC(F)F
Reply text: 6.9 nM

---

# TARGET_OR_SYSTEM: human recombinant PDE4B1 enzyme (Homo sapiens (Human), UniProt Q07343)
# ASSAY_TEXT: Inhibition of PDE4B1 activity by cAMP HTRF assay
# CONDITION_NOTES: human recombinant PDE4B1, cAMP 40 nM, pH 7.4
Quick rule for you: IC50 under 60 nM gets 1.0, anything else gets 0.0.

Example entries begin here.
COc1ccc(/C=C/n2c(C)cc(=O)cc2C)cc1OCC=C(C)C [Example 65]; 0.0
C/C=C/C(=O)OC(Cn1c(C)cc(=O)cc1C)c1ccc(OC)c(OCC2CC2)c1 (centres unmarked) [Example 6]; 1.0
COc1ccc(C(=O)Cn2c(C)cc(=O)cc2C)cc1OCC=C(C)C [Example 27]; 0.0
COc1ccc(/C=C/n2c(C)cc(=O)cc2C)cc1OCSC [Example 74]; 1.0
COc1ccc(C(=O)Cn2c(C)cc(=O)cc2C)cc1OC1CCC1 [Example 21]; 1.0

Turning now to a further molecule:
Inquiry: Dear colleague, could you confirm whether IC50 of COc1ccc(/C=C/n2c(C)cc(=O)cc2C)cc1O[C@@H]1CC[S+]([O-])C1 (single isomer, unassigned) [Example 86-1] falls below 60 nM? Thanks.
Reply text: 0.0

---

# TARGET_OR_SYSTEM: human recombinant PDE4B1 enzyme (Homo sapiens (Human), UniProt Q07343)
# ASSAY_TEXT: Inhibition of PDE4B1 activity by cAMP HTRF assay
# CONDITION_NOTES: human recombinant PDE4B1, cAMP 40 nM, pH 7.4
VALUE_TYPE: pIC50
pIC50 field: float, defined as -log10 of concentration (mol/L).

COc1ccc(/C(Cn2c(C)cc(=O)cc2C)=N/O)cc1OCC1CC1; 5.96
COc1ccc(/C(C)=C/n2c(C)cc(=O)cc2C)cc1OCC1CC1; 7.85
COC(=O)/C(=C\n1c(C)cc(=O)cc1C)c1ccc(OC)c(OCC2CC2)c1; 6.86
COc1ccc(/C=C/n2c(C)cc(=O)cc2C)cc1OCCSC; 7.58

Could you now look at the following molecule, please?
Inquiry: # lookup: pIC50 of COc1ccc(C(=O)Cn2c(C)cc(=O)cc2C)cc1OC1CCCO1 (centres unmarked)
Reply text: 7.59

---

Quick reference: IC50 of the listed items.
# TARGET_OR_SYSTEM: human recombinant PDE4B1 enzyme (Homo sapiens (Human))
# ASSAY_TEXT: Inhibition of PDE4B1 activity by cAMP HTRF assay
# CONDITION_NOTES: human recombinant PDE4B1, cAMP 40 nM, pH 7.4
# Protocol: Determination of the inhibition of the compounds on PDE4B1 activity by using cAMP HTRF® assay The inhibitory effect of the compounds on human PDE4B1 enzyme activity was determined by quantifying the 5′-adenosine monophosphate (5′-AMP) formed from 3′,5′-cyclic adenosine monophosphate (cAMP). […]
Expressed in nM, but write only the number.

COc1ccc(C(=O)Cn2c(C)cc(=O)cc2C)cc1OC1CCCC1; 5

Inquiry: Field request: IC50 | item: COc1ccc(C(=O)Cn2c(C)cc(=O)cc2C)cc1OC1CC1
Reply text: 4.6

Inquiry: Would you kindly share the measured IC50 for COc1ccc(C(=O)Cn2c(C)cc(=O)cc2C)cc1OCSC ?
Reply text: 13.9

Inquiry: Would you kindly share the measured IC50 for C=CCOc1cc(C(=O)Cn2c(C)cc(=O)cc2C)ccc1OC ?
Reply text: 39

---

# TARGET_OR_SYSTEM: human recombinant PDE4B1 enzyme (Homo sapiens (Human), UniProt Q07343)
# ASSAY_TEXT: Inhibition of PDE4B1 activity by cAMP HTRF assay
# CONDITION_NOTES: human recombinant PDE4B1, cAMP 40 nM, pH 7.4
# Description: Determination of the inhibition of the compounds on PDE4B1 activity by using cAMP HTRF® assay The inhibitory effect of the compounds on human PDE4B1 enzyme activity was determined by quantifying the 5′-adenosine monophosphate (5′-AMP) formed from 3′,5′-cyclic adenosine monophosphate (cAMP). […]
pIC50: −log10 of the molar value.
Mark rule met for reported pIC50 of 8 or greater; mark rule not met for anything smaller.

Inquiry: Assess whether reported pIC50 for COc1ccc(C(=O)Cn2c(C)cc(=O)cc2C)cc1OC[S+](C)[O-] (centres unmarked) sits at 8 or higher.
Reply text: rule not met

---

# TARGET_OR_SYSTEM: human recombinant PDE4B1 enzyme (Homo sapiens (Human))
# ASSAY_TEXT: Inhibition of PDE4B1 activity by cAMP HTRF assay
# CONDITION_NOTES: human recombinant PDE4B1, cAMP 40 nM, pH 7.4
pIC50: −log10 of the molar value.
Cut-off 7 on pIC50, inclusive. At or above means yes (1); below means no (0).

COc1ccc(/C=C/n2c(C)cc(=O)cc2C)cc1OC1COC1; yes (1)
COc1ccc(C(Cn2c(C)cc(=O)cc2C)OC(=O)C=C(C)C)cc1OCC1CC1 (centres unmarked); yes (1)
COc1ccc(C(=O)Cn2c(C)cc(=O)cc2C)cc1OCS(C)(=O)=O; no (0)
COc1ccc(/C(C#N)=C/n2c(C)cc(=O)cc2C)cc1OC; yes (1)
COc1ccc(C(Cn2c(C)cc(=O)cc2C)OC(=O)C2CC2)cc1OCC1CC1 (centres unmarked); yes (1)

Inquiry: Is reported pIC50 greater than or equal to 7 here: C=CCOc1cc(/C=C/n2c(C)cc(=O)cc2C)ccc1OC
Reply text: yes (1)

Inquiry: Hello, I need to know if Cc1cc(=O)cc(C)n1/C=C/c1ccc(OC(F)F)c(O[C@H]2CCSC2)c1 has measured pIC50 not below 7. Thanks!
Reply text: yes (1)

Inquiry: Is pIC50 at least 7? Consider COc1ccc(C2CC2n2c(C)cc(=O)cc2C)cc1OCC1CC1 (centres unmarked)
Reply text: no (0)

Inquiry: Does the reported pIC50 for COc1ccc(C(=O)Cn2c(C)cc(=O)cc2C)cc1OC1CC=CC1 fall at or above the 7 mark?
Reply text: yes (1)

Inquiry: Determine whether this compound has pIC50 no lower than 7: COc1ccc(C(=O)Cn2c(C)cc(=O)cc2C)cc1OC1CCCCC1
Reply text: yes (1)

Inquiry: # check: pIC50 of COc1ccc(/C=C/n2c(C)cc(=O)cc2C)cc1O[C@H]1CC[S+]([O-])C1 (single isomer, unassigned) [Example 83-1] is greater than or equal to 7
Reply text: no (0)

Inquiry: // inclusive: pIC50 at least 7? input: Cc1cc(=O)cc(C)n1/C=C/c1ccc(OC(F)F)c(OCCS(C)(=O)=O)c1
Reply text: no (0)

Inquiry: Is pIC50 for COc1ccc(/C=C/n2c(C)cc(=O)cc2C)cc1OC1CCCC1 at or above 7?
Reply text: yes (1)

---

# TARGET_OR_SYSTEM: human recombinant PDE4B1 enzyme (Homo sapiens (Human), UniProt Q07343)
# ASSAY_TEXT: Inhibition of PDE4B1 activity by cAMP HTRF assay
# CONDITION_NOTES: human recombinant PDE4B1, cAMP 40 nM, pH 7.4
pIC50: −log10 of the molar value.
Would you please tag the item fulfilled when its pIC50 is 7 or above, and not fulfilled when it is below?

COc1ccc(/C=C/n2c(C)cc(=O)cc2C)cc1O[C@H]1CCS(=O)(=O)C1; not fulfilled

Inquiry: Threshold query (pIC50 >= 7) on COc1ccc(/C=C(\C(=O)N(C)C)n2c(C)cc(=O)cc2C)cc1OCC1CC1
Reply text: not fulfilled

Inquiry: For this compound, is measured pIC50 7 or higher? CC#C/C(=C\n1c(C)cc(=O)cc1C)c1ccc(OC(F)F)c(OCC2CC2)c1
Reply text: fulfilled

Inquiry: Hello, I need to know if Cc1cc(=O)cc(C)n1/C=C/c1ccc(OC(F)F)c(O[C@@H]2CC[S+]([O-])C2)c1 (single isomer, unassigned) [Example 101-2] has measured pIC50 not below 7. Thanks!
Reply text: fulfilled

Inquiry: Given the entry CNC(=O)/C(=C\n1c(C)cc(=O)cc1C)c1ccc(OC)c(OCC2CC2)c1 , answer whether its pIC50 meets or surpasses 7.
Reply text: not fulfilled
